assay: HPLC peptide recovery before and after freeze-drying; details: After freeze dry T = 3M, stored at −20° C.
metric: Amount from non-validated HPLC assay (mg/mL)
Only the number, expressed in mg/mL, is required.

Query: Which Amount from non-validated HPLC assay value is on record for PKPDFSQLQRNILPSNPRVTRFHINWD (Mut22) [Mut 22] ?
Result: 0.54

Query: Which Amount from non-validated HPLC assay value is on record for CGTAFFINFIAIYHHASRAIPFGTMVA (Mut36) [Mut 36] ?
Result: 0.31

Query: Which Amount from non-validated HPLC assay value is on record for SHCHWNDLAVIPAGVVHNWDFEPRKVS (Mut48) [Mut 48] ?
Result: 0.41

Query: Which Amount from non-validated HPLC assay value is on record for GFSQPLRRLVLHVVSAAQAERLARAEE (Mut50) [Mut 50] ?
Result: 0.46

Query: Which Amount from non-validated HPLC assay value is on record for ECRITSNFVIPSEYWVEEKEEKQKLIQ (Mut45) [Mut 45] ?
Result: 0.46

Query: Which Amount from non-validated HPLC assay value is on record for NIEGIDKLTQLKKPFLVNNKINKIENI (Mut28) [Mut 28] ?
Result: 0.51

Query: Which Amount from non-validated HPLC assay value is on record for VVDRNPQFLDPVLAYLMKGLCEKPLAS (Mut17) [Mut 17] ?
Result: 0.26

Query: Which Amount from non-validated HPLC assay value is on record for TAVITPPTTTTKKARVSTPKPATPSTD (Mut24) [Mut 24] ?
Result: 0.37

Query: Which Amount from non-validated HPLC assay value is on record for IPSGTTILNCFHDVLSGKLSGGSPGVP (Mut29A) [Mut 29a] ?
Result: 0.35

Query: Which Amount from non-validated HPLC assay value is on record for STANYNTSHLNNDVWQIFENPVDWKEK (Mut25) [Mut 25] ?
Result: 0.56

Query: Which Amount from non-validated HPLC assay value is on record for EFKHIKAFDRTFANNPGPMVVFATPGM (Mut44) [Mut 44] ?
Result: 0.50

Query: Which Amount from non-validated HPLC assay value is on record for SFACLRQPSQGPTVGVKGGAAGGGYAQ (Mut29B) [Mut 29b] ?
Result: 0.48

Query: Which Amount from non-validated HPLC assay value is on record for PSKPSFQEFVDWENVSPELNSTDQPFL (Mut30) [Mut 30] ?
Result: 0.56

###

assay: HPLC peptide recovery before and after freeze-drying; conditions: Before freeze dry
Please assign Not fulfilled whenever Amount from non-validated HPLC assay is at or above 0.5 mg/mL, and Fulfilled whenever it is below.

Query: Regarding GFSQPLRRLVLHVVSAAQAERLARAEE (Mut50) [Mut 50] , kindly confirm whether its Amount from non-validated HPLC assay is beneath 0.5 mg/mL.
Result: Fulfilled

Query: Regarding CGTAFFINFIAIYHHASRAIPFGTMVA (Mut36) [Mut 36] , kindly confirm whether its Amount from non-validated HPLC assay is beneath 0.5 mg/mL.
Result: Fulfilled

Query: Regarding STANYNTSHLNNDVWQIFENPVDWKEK (Mut25) [Mut 25] , kindly confirm whether its Amount from non-validated HPLC assay is beneath 0.5 mg/mL.
Result: Not fulfilled

Query: Regarding SFACLRQPSQGPTVGVKGGAAGGGYAQ (Mut29B) [Mut 29b] , kindly confirm whether its Amount from non-validated HPLC assay is beneath 0.5 mg/mL.
Result: Not fulfilled

Query: Regarding NIEGIDKLTQLKKPFLVNNKINKIENI (Mut28) [Mut 28] , kindly confirm whether its Amount from non-validated HPLC assay is beneath 0.5 mg/mL.
Result: Not fulfilled

Query: Regarding PSKPSFQEFVDWENVSPELNSTDQPFL (Mut30) [Mut 30] , kindly confirm whether its Amount from non-validated HPLC assay is beneath 0.5 mg/mL.
Result: Not fulfilled

Query: Regarding SHCHWNDLAVIPAGVVHNWDFEPRKVS (Mut48) [Mut 48] , kindly confirm whether its Amount from non-validated HPLC assay is beneath 0.5 mg/mL.
Result: Fulfilled

Query: Regarding ECRITSNFVIPSEYWVEEKEEKQKLIQ (Mut45) [Mut 45] , kindly confirm whether its Amount from non-validated HPLC assay is beneath 0.5 mg/mL.
Result: Fulfilled

Query: Regarding PKPDFSQLQRNILPSNPRVTRFHINWD (Mut22) [Mut 22] , kindly confirm whether its Amount from non-validated HPLC assay is beneath 0.5 mg/mL.
Result: Not fulfilled

Query: Regarding IPSGTTILNCFHDVLSGKLSGGSPGVP (Mut29A) [Mut 29a] , kindly confirm whether its Amount from non-validated HPLC assay is beneath 0.5 mg/mL.
Result: Not fulfilled

Query: Regarding TAVITPPTTTTKKARVSTPKPATPSTD (Mut24) [Mut 24] , kindly confirm whether its Amount from non-validated HPLC assay is beneath 0.5 mg/mL.
Result: Not fulfilled
